tested on: Pseudomonas aeruginosa PA14 SCV biofilms; assay: Biofilm susceptibility testing (viable cell counts, log-killing, MBEC99.9); format: cell-based; conditions: SCV biofilms; 2 h exposure; 3 log10 reduction in viable cells
measured-property: MBEC99.9 (mM)
A number alone suffices; assume mM.

[Cu+2] [Cu^2+]
64

Here is another molecule to look at.
Dear colleague, I am looking for the recorded MBEC99.9 of the following molecule: [Ag+] [Ag^+]
4.8

---

Tested on: Pseudomonas aeruginosa PA14 gacS^− biofilms
Assay: Frequency of SCV cells arising from 24-h biofilms exposed for 18 h
Assay type: cell-based
Conditions: LB broth; antibiotic 1.25 μg mL^−1; overnight (18 h)
Method: In an alternative set of experiments, the frequency of SCV cells arising from 24-h biofilms of P. aeruginosa PA14 gacS was evaluated. Antibiotics were diluted from stock solutions into LB broth to obtain final concentrations of […]. These were arranged in triplicate in a micro-titre plate. […] Frequency of phenotypic variation. […] Viable cell counts were determined for each exposure condition, and log-survival was determined. […]
measured-property: SCV frequency (%)
A number alone suffices; assume %.

Study these solved cases before continuing.
C[C@H]1[C@H](NC(=O)/C(=N\OC(C)(C)C(=O)O)c2csc(N)n2)C(=O)N1S(=O)(=O)O
24
NC[C@H]1O[C@H](O[C@H]2[C@H](O)[C@@H](O[C@H]3O[C@H](CO)[C@@H](O)[C@H](N)[C@H]3O)[C@H](N)C[C@@H]2N)[C@H](N)C[C@@H]1O
14
CO/N=C(\C(=O)N[C@@H]1C(=O)N2C(C(=O)O)=C(CSc3nc(=O)c(O)nn3C)CS[C@H]12)c1csc(N)n1
29

Dear colleague, I am looking for the recorded SCV frequency of the following compound: C[C@@H](O)[C@H]1C(=O)N2C(C(=O)O)=C(SCCN=CN)C[C@H]12
0

Dear colleague, I am looking for the recorded SCV frequency of the following compound: Cc1onc(-c2ccccc2)c1C(=O)N[C@@H]1C(=O)N2[C@@H]1SC(C)(C)[C@@H]2C(=O)O
32
